Target: Interleukin-23 receptor (Homo sapiens)
Sequence (Q5VWK5 whole entry): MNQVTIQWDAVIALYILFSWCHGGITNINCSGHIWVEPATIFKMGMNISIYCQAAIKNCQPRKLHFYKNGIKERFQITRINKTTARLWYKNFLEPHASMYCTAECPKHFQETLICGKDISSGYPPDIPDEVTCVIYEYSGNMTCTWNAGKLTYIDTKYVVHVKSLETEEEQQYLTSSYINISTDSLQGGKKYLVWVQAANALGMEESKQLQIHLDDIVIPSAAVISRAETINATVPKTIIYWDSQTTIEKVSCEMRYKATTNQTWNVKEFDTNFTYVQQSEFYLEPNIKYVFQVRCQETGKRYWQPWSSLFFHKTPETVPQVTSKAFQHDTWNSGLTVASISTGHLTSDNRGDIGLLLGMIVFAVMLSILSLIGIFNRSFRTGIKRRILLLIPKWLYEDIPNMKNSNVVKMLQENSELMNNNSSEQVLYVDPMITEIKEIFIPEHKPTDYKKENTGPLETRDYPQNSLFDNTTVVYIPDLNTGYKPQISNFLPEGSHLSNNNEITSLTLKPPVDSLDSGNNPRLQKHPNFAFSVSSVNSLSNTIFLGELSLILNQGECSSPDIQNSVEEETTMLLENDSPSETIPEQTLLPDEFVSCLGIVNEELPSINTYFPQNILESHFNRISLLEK
Assay: Inhibition of interleukin-23 binding to human interleukin-23 receptor incubated for 2 hrs by competitive binding ELISA
pIC50: −log10 of the molar value. Where a SMILES comes first, the peptide text is derived from it.
Test readout: pIC50

Please state recorded pIC50 (tested on Interleukin-23 receptor (Homo sapiens)) of `CC(=O)N[C@@H](CS)C(=O)N[C@@H](CCC(N)=O)C(=O)N[C@H](C(=O)N[C@@H](Cc1c[nH]c2ccccc12)C(=O)N[C@@H](CCC(N)=O)C(=O)N[C@@H](CS)C(=O)N[C@@H](Cc1ccc(O)cc1)C(=O)N[C@@H](Cc1c[nH]c2ccccc12)C(=O)N[C@@H](CC(C)C)C(=O)N[C@@H](CCC(=O)O)C(=O)N[C@@H](CC(N)=O)C(=O)NCC(N)=O)[C@@H](C)O`
> 6.30

Query pIC50 on Interleukin-23 receptor (Homo sapiens) for `CC(=O)NCCCC[C@H](NC(=O)[C@](C)(CCCCN)NC(=O)[C@H](Cc1ccc2ccccc2c1)NC(=O)[C@H](Cc1ccc(OCCN)cc1)NC(=O)[C@@H]1CSCC[C@H](NC(=O)CCC(=O)O)C(=O)N[C@@H](CCC(N)=O)C(=O)N[C@@H]([C@@H](C)O)C(=O)N[C@@H](Cc2c[nH]c3ccccc23)C(=O)N[C@@H](CCC(N)=O)C(=O)N1)C(=O)N[C@@H](CC(N)=O)C(=O)NCC(N)=O`
> 8.00

Param readout = pIC50; param system = Interleukin-23 receptor (Homo sapiens); param query = `COc1ccc(C[C@H](NC(=O)[C@@H]2CSCC[C@H](NC(C)=O)C(=O)N[C@@H](CCC(N)=O)C(=O)N[C@@H]([C@@H](C)O)C(=O)N[C@@H](Cc3c[nH]c4ccccc34)C(=O)N[C@@H](CCC(N)=O)C(=O)N2)C(=O)N[C@@H](Cc2ccc3ccccc3c2)C(=O)N[C@@](C)(CCCCN)C(=O)N[C@@H](CCCCNC(C)=O)C(=O)N[C@@H](CC(N)=O)C(=O)NCC(N)=O)cc1` ; response: value
> 8.00

Write down the reported pIC50 of `CC(=O)N[C@@H](CS)C(=O)N[C@@H](CCC(N)=O)C(=O)N[C@H](C(=O)N[C@@H](Cc1c[nH]c2ccccc12)C(=O)N[C@@H](CCC(N)=O)C(=O)N[C@@H](CS)C(=O)N[C@@H](Cc1ccc(O)cc1)C(=O)N[C@@H](Cc1c[nH]c2ccccc12)C(=O)N1CCC[C@H]1C(=O)N[C@@H](CCC(=O)O)C(=O)N[C@@H](CC(N)=O)C(=O)NCC(N)=O)[C@@H](C)O` , test system: Interleukin-23 receptor (Homo sapiens).
< 4.52

Notebook: pull reported pIC50 for Interleukin-23 receptor (Homo sapiens), entry CC(=O)NCC(=O)NCC(=O)N[C@H](C(=O)N[C@@H](CCC(=O)O)C(=O)N[C@@H](CS)C(=O)N[C@@H](CC(N)=O)C(=O)N[C@@H](CC(=O)O)C(=O)N[C@@H](Cc1c[nH]c2ccccc12)C(=O)N[C@@H](CCC(N)=O)C(=O)N[C@@H](CS)C(=O)N[C@@H](Cc1ccc(O)cc1)C(=O)N[C@@H](Cc1c[nH]c2ccccc12)C(=O)N[C@@H](Cc1cnc[nH]1)C(=O)N[C@H](C(=O)N[C@@H](Cc1ccccc1)C(=O)NCC(N)=O)[C@@H](C)O)C(C)C (Ac-GGVECNDWQCYWHTFG-NH2)
6.00 to 6.30

###

Biological target: Interleukin-23 receptor (Homo sapiens, UniProt Q5VWK5)
Sequence (Q5VWK5 whole entry): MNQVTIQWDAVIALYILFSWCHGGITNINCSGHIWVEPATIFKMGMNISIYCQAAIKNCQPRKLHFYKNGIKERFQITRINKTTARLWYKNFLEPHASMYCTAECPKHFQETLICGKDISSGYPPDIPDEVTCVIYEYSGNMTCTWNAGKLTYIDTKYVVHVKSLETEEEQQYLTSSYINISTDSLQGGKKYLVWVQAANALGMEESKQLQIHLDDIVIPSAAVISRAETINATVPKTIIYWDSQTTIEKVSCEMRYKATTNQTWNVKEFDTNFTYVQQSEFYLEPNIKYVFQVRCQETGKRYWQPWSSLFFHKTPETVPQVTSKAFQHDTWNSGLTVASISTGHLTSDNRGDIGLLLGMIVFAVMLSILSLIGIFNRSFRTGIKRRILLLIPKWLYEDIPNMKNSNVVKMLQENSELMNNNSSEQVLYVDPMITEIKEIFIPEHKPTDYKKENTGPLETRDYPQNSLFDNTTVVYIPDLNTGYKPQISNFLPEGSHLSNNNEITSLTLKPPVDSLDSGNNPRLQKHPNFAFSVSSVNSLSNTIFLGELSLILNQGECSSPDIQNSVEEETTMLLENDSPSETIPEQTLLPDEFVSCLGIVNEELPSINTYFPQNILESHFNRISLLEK
Experiment: Inhibition of interleukin-23 receptor in human DB cells assessed as reduction in IL-23-stimulated STAT3 phosphorylation incubated for 30 mins by HTRF assay
Type: cell-based
pIC50: −log10 of the molar value. Where a SMILES comes first, the peptide text is derived from it. [ ]: non-standard residue; d: D form. 2Nal = N[C@@H](Cc1ccc2ccccc2c1)C(=O)O; AEF = NCCOc1ccc(C[C@H](N)C(=O)O)cc1; Pen = CC(C)(S)[C@H](N)C(=O)O; Aib = CC(C)(N)C(=O)O
Could you please report measured pIC50 for the items listed next?

Form field: reported pIC50 of CC(=O)NCCCC[C@H](NC(=O)C(C)(C)NC(=O)[C@H](Cc1ccc2ccccc2c1)NC(=O)[C@H](Cc1ccc(OCCN)cc1)NC(=O)[C@@H](NC(=O)[C@H](CCC(N)=O)NC(=O)[C@H](Cc1c[nH]c2ccccc12)NC(=O)[C@@H](NC(=O)[C@H](CCC(N)=O)NC(=O)[C@@H](NC(=O)[C@H](CCC(=O)O)NC(C)=O)C(C)(C)S)[C@@H](C)O)C(C)(C)S)C(=O)N[C@@H](CC(N)=O)C(=O)N[C@@H](CC(N)=O)C(N)=O (Ac-E[Pen]QTWQ[Pen][AEF][2Nal][Aib]K(Ac)NN-NH2)
> 8.00

Request the reported pIC50 associated with `CC(=O)NCCCC[C@H](NC(=O)[C@](C)(CCCCNC(C)=O)NC(=O)[C@H](Cc1ccc2ccccc2c1)NC(=O)[C@H](Cc1ccc(OCCNC(C)=O)cc1)NC(=O)[C@@H]1CSCC[C@H](NC(C)=O)C(=O)N[C@@H](CCC(N)=O)C(=O)N[C@@H]([C@@H](C)O)C(=O)N[C@@H](Cc2c[nH]c3ccccc23)C(=O)N[C@@H](CCC(N)=O)C(=O)N1)C(=O)N[C@@H](CC(N)=O)C(=O)NCC(N)=O`
> 8.00

Form field: reported pIC50 of `COc1ccc(C[C@H](NC(=O)[C@@H](NC(=O)[C@H](CCC(N)=O)NC(=O)[C@H](Cc2c[nH]c3ccccc23)NC(=O)[C@@H](NC(=O)[C@H](CCC(N)=O)NC(=O)[C@@H](NC(C)=O)C(C)(C)S)[C@@H](C)O)C(C)(C)S)C(=O)N[C@@H](Cc2ccc3ccccc3c2)C(=O)NC(C)(C)C(=O)N[C@@H](CCCCNC(C)=O)C(=O)N[C@@H](CC(N)=O)C(=O)N[C@@H](C)C(N)=O)cc1`
> 8.00

Any idea what pIC50 was measured for `CC(=O)N[C@@H](CS)C(=O)N[C@@H](C)C(=O)N[C@@H](CC(=O)O)C(=O)N[C@@H](Cc1c[nH]c2ccccc12)C(=O)N[C@H](C(=O)N[C@@H](CS)C(=O)N[C@@H](Cc1ccc(O)cc1)C(=O)N[C@@H](Cc1c[nH]c2ccccc12)C(=O)N[C@H](Cc1cnc[nH]1)C(=O)N[C@H](C(=O)N[C@@H](Cc1ccccc1)C(=O)NCC(=O)NCCOCC(=O)N[C@H](CCCCN)C(N)=O)[C@@H](C)O)C(C)C` ?
6.00 to 7.00

For `CC(=O)NCCCC[C@H](NC(=O)[C@](C)(CC(C)C)NC(=O)[C@H](Cc1ccc2ccccc2c1)NC(=O)[C@H](Cc1ccc(OCCN)cc1)NC(=O)[C@@H](NC(=O)[C@H](CCC(N)=O)NC(=O)[C@H](Cc1c[nH]c2ccccc12)NC(=O)[C@@H](NC(=O)[C@H](CCC(N)=O)NC(=O)[C@@H](NC(C)=O)C(C)(C)S)[C@@H](C)O)C(C)(C)S)C(=O)N[C@@H](CC(N)=O)C(=O)N[C@@H](CC(N)=O)C(N)=O` , what is its reported pIC50?
> 8.00
